- METHOD: Acute toxicity after single oral administration to mice
- CONDITIONS: mouse, in vivo, read-out: DL50 (the source's name)
- Excerpt: Die nachfolgende Tabelle enthält für zwei repräsentative Vertreter der durch die allgemeine Formel I umfassten Verbindungsklasse die ED50-Werte, sowie Angaben über deren akute Toxizität bei einmaliger oraler Verabreichung an Mäusen (DL50 in m^g/k^g).
OBSERVABLE: LD50

- COMPOUND: "Cc1cccc2c1CCC1=C(CC=CC1)C2CCCN(C)C (centres unmarked) [A]"
  REPORTED_RESULT: "600 to 1200 mg/kg"

Incoming: Tell me the measured LD50 of Cc1cccc2c1CCC1=C(CCCC1)C2CCCN(C)C (centres unmarked) [B] , please.
Outgoing: 250 to 500 mg/kg

All values here come from patent EP0056616A2.
